# Method Summary: Cytotoxicity against NRCM cells assessed as reduction in cell viability measured after 48 hrs by CCK-8 method
# Format: toxicity, cell-based
# Stated Conditions: rat
Reported CC50 at 48 h is given for each of the following compounds.

Answered examples (2):
[ask] Recorded CC50 at 48 h for `COC(=O)[C@@H]1C[C@@H]2C[C@@H](C)[C@@H]3OC(=O)C[C@]3(C)[C@H]2C1` , please?
[reply] > 50 µM

[ask] `C[C@@]12CC[C@@](C)(C1=O)[C@H]1C[C@H](C(=O)O)C[C@H]1C2` , same question.
[reply] > 50 µM

Next compound, please.
[ask] Recorded CC50 at 48 h for `COC(=O)[C@@H]1C[C@@H]2C[C@@H](C)[C@@H]3C(=O)C[C@]3(C)[C@H]2C1` , please?
[reply] > 50 µM

These data points were gathered from ChEMBL document CHEMBL5357055.
